test: Cellular viability assay (MTT), S17; format: cell-based; conditions: mouse, S17 bone marrow stromal cells (non-tumoral), read-out: S17 cytotoxic activity EC50

{"columns": ["molecule", "EC50 at 72 h, µg/mL"],
 "data": [
  ["COc1cc([C@@H]2c3cc4c(cc3[C@@H](O[C@@H]3O[C@@H]5CO[C@@H](C)O[C@H]5[C@H](O)[C@H]3O)[C@H]3COC(=O)[C@H]23)OCO4)cc(OC)c1O [etoposide]", 7.86]
]}
